system: E. coli TESEC Mtb Alr; experiment: growth (OD600 after 10 h); higher = more growth (less inhibition); settings: arabinose 100 nM; compound 0.1 mM; raw OD600 reference: median of DMSO wells 0.413, cell-free background 0.052
Where a name gives a salt, the structure may show the parent alone.
Each item that follows carries a reported growth.
Just the number, please, no unit attached.

Recorded results for 8 molecules are shown here.
NC(=O)N1c2ccccc2C=Cc2ccccc21 [Carbamazepine] = 0.405
Nc1ccc(S(N)(=O)=O)cc1 [Sulfanilamide] = 0.388
O=C(Nc1ccccc1)OCC(CN1CCCCC1)OC(=O)Nc1ccccc1 (stereo not given) [Diperodon hydrochloride] = 0.426
C[C@H]1C[C@H]2[C@@H]3CCC4=CC(=O)C=C[C@]4(C)[C@@]3(F)[C@@H](O)C[C@]2(C)[C@@]1(O)C(=O)CO = 0.406
CNNCc1ccc(C(=O)NC(C)C)cc1 [Procarbazine hydrochloride] = 0.424
CCCCNc1cc(C(=O)O)cc(S(N)(=O)=O)c1Oc1ccccc1 [Bumetanide] = 0.426
CCN1C(=O)NC(c2ccccc2)C1=O (stereo not given) = 0.412
CN1C(C)(C)CCCC1(C)C [Pempidine tartrate] = 0.407

Tested on E. coli TESEC Mtb Alr: Nc1nnc(-c2cccc(Cl)c2Cl)c(N)n1 . Observed growth: 0.413

Tested on E. coli TESEC Mtb Alr: CC(=O)OCC(=O)[C@@]1(O)CC[C@H]2[C@@H]3CCC4=CC(=O)C=C[C@]4(C)[C@@]3(F)[C@@H](O)C[C@@]21C [Isoflupredone acetate] . Observed growth: 0.389

Tested on E. coli TESEC Mtb Alr: CN(C)CCC(c1ccc(Br)cc1)c1ccccn1 (stereo not given) [Brompheniramine maleate] . Observed growth: 0.398

Tested on E. coli TESEC Mtb Alr: Nc1ccn([C@H]2CC[C@@H](CO)O2)c(=O)n1 . Observed growth: 0.409
